assay: Cmax in CD1 mouse at 300 mg/kg, po; assay type: ADME, organism-based; set-up: route oral, dose 300 mg/kg; conditions: in vivo

- COMPOUND: "CCC(C)(C)C(=O)O [DIMEBUTIC ACID]"
  UNIT: "µg/mL"
  Cmax: 465

* * *

assay: Half life in CD1 mouse at 300 mg/kg, po; format: ADME, organism-based; conditions: in vivo

- COMPOUND: "CCC(C)(C)C(=O)O"
  half-life [min]: 115

* * *

assay: Half life in Sprague-Dawley rat at 10 mg/kg, po; format: ADME, organism-based; settings: in vivo

- MOLECULE: "CCC(C)(C)C(=O)O [DIMEBUTIC ACID]"
  half-life (h): 3.17
